- Target desc: Human recombinant LSD1 protein (Homo sapiens)
- Assay protocol: Inhibition of LSD1 (Amplex Red peroxide/peroxidase-coupled demethylase assay, di-methylated H3-K4 peptide substrate)
- Experimental parameters: Ki (IC50) estimated at half of the maximum activity; range class
pKi: −log10 of the molar value. Counter-ions that a name gives are not always drawn.
Parameter: pKi

Molecule	Assay result
Cc1cccc(Nc2ccc([C@H]3C[C@@H]3N)cn2)c1 (racemic) [Example 7, hydrochloride]	6.00 to 7.00
Cc1ccc(Nc2ccc([C@H]3C[C@@H]3N)cn2)cc1 (racemic) [Example 6, hydrochloride]	6.00 to 7.00
COc1ccc(Nc2ccc([C@H]3C[C@@H]3N)cn2)cc1 (racemic) [Example 5, hydrochloride]	6.00 to 7.00
COc1cccc(Nc2ccc([C@H]3C[C@@H]3N)cn2)c1 (racemic) [Example 4, hydrochloride]	6.00 to 7.00
N[C@H]1C[C@@H]1c1ccc(Nc2ccc(Cl)cc2)nc1 (racemic) [Example 2, hydrochloride]	6.00 to 7.00
N#Cc1cccc(Nc2ccc([C@H]3C[C@@H]3N)cn2)c1 (racemic) [Example 9, hydrochloride]	6.00 to 7.00
N[C@H]1C[C@@H]1c1ccc(NCc2cccc(Cl)c2)nc1 (racemic) [Example 12, hydrochloride]	6.00 to 7.00
